# MIC per entry for Bacillus subtilis ATCC 23857
Entry rule: numbers only, all in µM.

C[C@H](N)C(=O)N[C@@H](Cc1c[nH]c2ccccc12)C(=O)N[C@@H](CCCN=C(N)N)C(=O)N[C@@H](Cc1c[nH]c2ccccc12)C(=O)N[C@@H](Cc1c[nH]c2ccccc12)C(=O)N[C@@H](Cc1c[nH]c2ccccc12)C(=O)N[C@@H](CCCN=C(N)N)C(=O)N[C@@H](Cc1c[nH]c2ccccc12)C(=O)N[C@@H](C)C(N)=O: 8

Pending compound:
Exercise: Which MIC value belongs to CC[C@H](C)[C@H](N)C(=O)N[C@@H](CCCN=C(N)N)C(=O)N[C@H](C(=O)N[C@@H](CCCN=C(N)N)C(=O)N[C@@H](CS)C(=O)N[C@@H](CCCN=C(N)N)C(=O)N[C@@H](CCCN=C(N)N)C(=O)N[C@@H](CCCN=C(N)N)C(=O)N[C@@H](Cc1ccccc1)C(=O)N[C@@H](CS)C(=O)N[C@@H](CCCN=C(N)N)C(=O)N[C@H](C(=O)N[C@@H](CCCN=C(N)N)C(=O)N[C@H](C(N)=O)[C@@H](C)CC)[C@@H](C)CC)[C@@H](C)CC ?
Solution: 4

* * *

Entries and their MIC
# Tested on: Pseudomonas aeruginosa H103
# assay-notes: ≥ marks a high value that may be exact or a test limit, other limits are often not marked, values filed in µg/mL are converted to µM
Entry rule: numbers only, all in µM.

CC[C@H](C)[C@H](NC(=O)[C@H](CCCN=C(N)N)NC(=O)[C@H](CCCN=C(N)N)NC(=O)[C@H](CC(C)C)NC(=O)[C@@H](N)CCCN=C(N)N)C(=O)N[C@H](C(=O)N[C@H](C(=O)N[C@H](C(=O)N[C@@H](CCCN=C(N)N)C(=O)N[C@H](C(=O)N[C@@H](C)C(=O)N[C@@H](CCCN=C(N)N)C(=O)O)C(C)C)[C@@H](C)CC)C(C)C)C(C)C: 5.31
CC[C@H](C)[C@H](NC(=O)[C@H](CCCN=C(N)N)NC(=O)[C@H](C)NC(=O)CNC(=O)[C@@H](N)CCCN=C(N)N)C(=O)N[C@H](C(=O)N[C@H](C(=O)N[C@H](C(=O)N[C@@H](CCCN=C(N)N)C(=O)N[C@H](C(=O)N[C@@H](C)C(=O)N[C@@H](CCCN=C(N)N)C(N)=O)C(C)C)[C@@H](C)CC)C(C)C)C(C)C: 22.7

Pending compound:
Exercise: Param readout= MIC; system= Pseudomonas aeruginosa H103; entry= CC(C)[C@H](NC(=O)[C@H](CCCN=C(N)N)NC(=O)[C@H](Cc1c[nH]c2ccccc12)NC(=O)[C@H](Cc1c[nH]c2ccccc12)NC(=O)[C@H](Cc1c[nH]c2ccccc12)NC(=O)[C@H](CCCN=C(N)N)NC(=O)[C@H](Cc1c[nH]c2ccccc12)NC(=O)[C@@H](N)CCCN=C(N)N)C(=O)N[C@@H](Cc1ccc(O)cc1)C(=O)O ; returns value.
Solution: 13.2

* * *

# Tested on: Enterococcus faecalis ATCC 29212
# assay-notes: ≥ marks a high value that may be exact or a test limit, other limits are often not marked, values filed in µg/mL are converted to µM
Entries and their MIC
Entry rule: numbers only, all in µM.

// worked examples, MIC included
CC[C@H](C)[C@H](NC(=O)[C@H](CCCN=C(N)N)NC(=O)CNC(=O)[C@@H](NC(=O)[C@@H](NC(=O)[C@H](CCCN=C(N)N)NC(=O)[C@H](CCCCN)NC(=O)[C@H](Cc1ccccc1)NC(=O)[C@H](CCC(=O)O)NC(=O)[C@H](CCCCN)NC(=O)CN)[C@@H](C)CC)C(C)C)C(=O)N[C@@H](Cc1ccc(O)cc1)C(=O)N[C@@H](CCCN=C(N)N)C(=O)N[C@@H](CC(C)C)C(=O)N[C@@H](CS)C(=O)N[C@@H](CS)C(=O)N[C@@H](CCCN=C(N)N)C(N)=O [GKEFKRIVGRIYRLCCR]: 16
NC(=O)[C@H](Cc1c[nH]c2ccccc12)NC(=O)[C@H](Cc1c[nH]c2ccccc12)NC(=O)[C@H](CCCN=C(N)N)NC(=O)[C@H](CCCN=C(N)N)NC(=O)[C@H](Cc1c[nH]c2ccccc12)NC(=O)[C@H](CCCN=C(N)N)NC(=O)[C@H](CCCN=C(N)N)NC(=O)[C@H](Cc1c[nH]c2ccccc12)NC(=O)[C@H](Cc1c[nH]c2ccccc12)NC(=O)[C@@H](N)CCCN=C(N)N [RWWRRWRRWW]: 32
CC[C@H](C)[C@H](NC(=O)[C@H](CCCCN)NC(=O)[C@H](CCCCN)NC(=O)[C@H](CC(C)C)NC(=O)[C@H](CCCN=C(N)N)NC(=O)[C@H](Cc1c[nH]c2ccccc12)NC(=O)[C@H](CCCN=C(N)N)NC(=O)[C@@H](NC(=O)[C@H](CCCCN)NC(=O)[C@H](Cc1c[nH]c2ccccc12)NC(=O)[C@H](CCCN=C(N)N)NC(=O)[C@H](CC(C)C)NC(=O)[C@H](CCCN=C(N)N)NC(=O)[C@H](CCCN=C(N)N)NC(=O)[C@H](Cc1ccccc1)NC(=O)[C@@H](N)CCCN=C(N)N)[C@@H](C)O)C(N)=O [RFRRLRWKTRWRLKKI]: 4
CC[C@H](C)[C@H](N)C(=O)N[C@@H](CC(N)=O)C(=O)N[C@@H](CC(C)C)C(=O)N[C@@H](CCCCN)C(=O)N[C@@H](C)C(=O)N[C@H](C(=O)N[C@@H](C)C(=O)N[C@@H](C)C(=O)N[C@@H](CC(C)C)C(=O)N[C@@H](C)C(=O)N[C@@H](CCCN=C(N)N)C(=O)N[C@@H](CC(N)=O)C(=O)N[C@@H](Cc1ccc(O)cc1)C(=O)O)[C@@H](C)CC [INLKAIAALARNY]: 3.49
CC(C)C[C@H](NC(=O)[C@H](CC(C)C)NC(=O)[C@H](CCCN=C(N)N)NC(=O)CNC(=O)[C@H](CC(C)C)NC(=O)[C@H](CC(C)C)NC(=O)[C@H](CCCCN)NC(=O)[C@H](CO)NC(=O)[C@H](CC(C)C)NC(=O)[C@H](Cc1c[nH]c2ccccc12)NC(=O)[C@H](CCC(N)=O)NC(=O)[C@H](CC(C)C)NC(=O)[C@@H](N)CC(C)C)C(N)=O [LLQWLSKLLGRLL]: 3

Exercise: Which MIC value belongs to CC[C@H](C)[C@H](NC(=O)[C@H](CCCCN)NC(=O)[C@H](CCCN=C(N)N)NC(=O)[C@H](CC(C)C)NC(=O)[C@H](Cc1ccccc1)NC(=O)[C@H](CCCN=C(N)N)NC(=O)CNC(=O)[C@H](Cc1ccccc1)NC(=O)[C@@H](N)CCCN=C(N)N)C(=O)N[C@@H](CCCN=C(N)N)C(=O)N[C@@H](CCCN=C(N)N)C(=O)N[C@@H](Cc1ccccc1)C(=O)N[C@@H](CCCN=C(N)N)C(=O)N1CCC[C@H]1C(=O)N[C@@H](CCCCN)C(N)=O [RFGRFLRKIRRFRPK] ?
Solution: 16

Exercise: Could you do the same for CC(C)[C@H](NC(=O)[C@H](CCCN=C(N)N)NC(=O)[C@H](Cc1c[nH]c2ccccc12)NC(=O)[C@H](Cc1c[nH]c2ccccc12)NC(=O)[C@H](Cc1c[nH]c2ccccc12)NC(=O)[C@H](CCCN=C(N)N)NC(=O)[C@H](Cc1c[nH]c2ccccc12)NC(=O)[C@@H](N)CCCN=C(N)N)C(=O)N[C@@H](Cc1ccc(O)cc1)C(=O)O [RWRWWWRVY] , please?
Solution: 3.3

Exercise: Could you do the same for CC[C@H](C)[C@H](NC(=O)[C@H](CCCN=C(N)N)NC(=O)[C@H](CCCN=C(N)N)NC(=O)[C@H](CC(C)C)NC(=O)[C@@H](N)CCCN=C(N)N)C(=O)N[C@H](C(=O)N[C@H](C(=O)N[C@H](C(=O)N[C@@H](CCCN=C(N)N)C(=O)N[C@H](C(=O)N[C@@H](C)C(=O)N[C@@H](CCCN=C(N)N)C(=O)O)C(C)C)[C@@H](C)CC)C(C)C)C(C)C [RLRRIVVIRVAR] , please?
Solution: 5.31

* * *

# MIC per entry for Escherichia coli K88
Entry rule: numbers only, all in µM.

// worked examples, MIC included
CC(C)C[C@H](NC(=O)[C@H](CCCCN)NC(=O)[C@H](C)NC(=O)[C@H](C)NC(=O)[C@H](C)NC(=O)[C@H](CCCCN)NC(=O)[C@H](C)NC(=O)[C@H](C)NC(=O)[C@H](C)NC(=O)[C@H](CCCCN)NC(=O)[C@H](Cc1c[nH]c2ccccc12)NC(=O)[C@@H](N)CC(C)C)C(=O)N[C@@H](Cc1c[nH]c2ccccc12)C(N)=O [LWKAAAKAAAKLW]: 4
CC(C)C[C@H](NC(=O)[C@H](CCCCN)NC(=O)CNC(=O)[C@H](CCCCN)NC(=O)[C@H](CC(C)C)NC(=O)[C@H](Cc1c[nH]c2ccccc12)NC(=O)[C@H](CC(C)C)NC(=O)[C@H](CCCCN)NC(=O)CNC(=O)[C@H](CCCCN)NC(=O)[C@@H](N)CC(C)C)C(N)=O [LKGKLWLKGKL]: 8

Pending compound:
Exercise: Which MIC value belongs to CC[C@H](C)[C@H](NC(=O)[C@H](CCCN=C(N)N)NC(=O)[C@H](C)NC(=O)[C@H](C)N)C(=O)N[C@H](C(=O)N[C@@H](CC(C)C)C(=O)N[C@@H](CCCN=C(N)N)C(=O)N[C@@H](Cc1c[nH]c2ccccc12)C(=O)N[C@@H](Cc1ccccc1)C(=O)N[C@@H](CCCN=C(N)N)C(=O)N[C@@H](CCCN=C(N)N)C(N)=O)[C@@H](C)CC [AARIILRWFRR] ?
Solution: 2
